- Tested on: HEK-293T
- procedure text: Multiplex assay against HEK293T
- Format: toxicity, cell-based
- assay conditions: human, 12 h, 1 µM, compound concentration 1 uM, replicate 1
assay endpoint: Population Normal (%)
One number for each entry, in %.

Example entries begin here.
1) CCn1cc(-c2ccnc3[nH]c(-c4cccc(CN(C)C)c4)cc23)c(-c2ccc(NC(=O)N(C)C)cc2)n1 ... 88
2) C=CCn1c(=O)c2cnc(Nc3ccc(N4CCN(C)CC4)cc3)nc2n1-c1cccc(C(C)(C)O)n1 ... 85

Provide each entry's Population Normal (%) from the list below.
1. Cc1cc(C)c(S(=O)(=O)N(Cc2ccc(-c3cccc(S(C)(=O)=O)c3)cc2)Cc2ccc(C(F)(F)F)o2)c(C)c1
2. CCN1CCN(Cc2ccc(Nc3ncc(F)c(-c4cc(F)c5nc(C)n(C(C)C)c5c4)n3)nc2)CC1.CS(=O)(=O)O
3. O=C1N/C(=N/c2ccccc2F)S/C1=C\c1ccc(C(=O)O)cc1

1: 89; 2: 82; 3: 85

====

- Tested on: Fibroblast
- procedure text: Incucyte cell viability with human fibroblast; also: filed as whole numbers so only -1 and 0 and 1 occur
- Format: toxicity, cell-based
- assay conditions: 24 h, 10 µM, compound concentration 10 uM, replicate number 1, timepoint 24 hours
assay endpoint: Growth Rate
Numbers only.

Example entries begin here.
1. Cc1cc(C)c(S(=O)(=O)N(Cc2ccc(-c3cccc(S(C)(=O)=O)c3)cc2)Cc2ccc(C(F)(F)F)o2)c(C)c1 ... 0
2. Cc1cnc(Nc2ccc(F)cc2Cl)nc1-c1c[nH]c(C(=O)N[C@H](CO)c2cccc(Cl)c2)c1 ... 0
3. N#Cc1c[nH]c2c(C(=O)N3CCN(CCc4ccc(F)cc4)CC3)cccc12 ... 0
4. Cn1cc(CCn2cnc(-c3cnn(C)c3)c2-c2ccc(C#N)cc2)cn1 ... 1
5. CCC[C@H](Oc1cc(C)c(-n2cc(C(F)(F)F)cn2)c(C)c1)c1ccc(C(=O)NCCC(=O)O)cc1 ... 1

Provide each entry's Growth Rate from the list below.
1. CC(=O)N1CCC(c2ccc(C(=O)NC(=N)N)cc2C(F)(F)F)CC1
2. Cc1ccc(C(=O)Nc2cccc(C(F)(F)F)c2)cc1Nc1nc(-c2cccnc2)nc2c1cnn2C
3. CCN1CCN(c2ccc(Nc3cc(N(C)C(=O)Nc4c(Cl)c(OC)cc(OC)c4Cl)ncn3)cc2)CC1

1. 0
2. 0
3. 0

Provide each entry's Growth Rate from the list below.
1. Cl.Oc1ccc2c3c1O[C@H]1c4[nH]c5c(c4C[C@@]4(O)[C@@H](C2)N(CC2CC2)CC[C@]314)C[C@@]1(O)[C@H]2Cc3ccc(O)c4c3[C@@]1(CCN2CC1CC1)[C@H]5O4
2. C[C@H]1Oc2cc(cnc2N)-c2c(nn(C)c2C#N)CN(C)C(=O)c2ccc(F)cc21
3. CC(=O)C1=C(C)N(c2cccc(C(F)(F)F)c2)C(=O)N[C@@H]1c1ccc(C#N)nc1
4. Cc1ccc(-c2cnc([C@@]3(O)CC[C@H](C(=O)O)C(C)(C)C3)s2)cc1Nc1cccc(C(F)(F)F)n1
5. Cc1oncc1C(=O)Nc1ccc(C(F)(F)F)cc1 [LEFLUNOMIDE]
6. COCC(=O)NC/C=C/c1ccc2ncnc(Nc3ccc(Oc4ccc(C)nc4)c(C)c3)c2c1

1: 0; 2: 0; 3: 0; 4: 0; 5: 1; 6: 1

Provide each entry's Growth Rate from the list below.
1. NC(=O)c1cccc(-c2cc(Nc3ccc(OC(F)(F)F)cc3)ncn2)c1
2. COc1cc(OC)cc(-c2noc(N3CCN(C)C4(CCN(c5ccnc(C)c5)CC4)C3)n2)c1

0
0
